Assay: reversal of MRP1-mediated doxorubicin resistance, pilot screen, H69AR cells, doxorubicin co-treatment (AID 601)
Settings: H69AR cells + 2 uM doxorubicin, CellTiter-Glo, 72 h; at 10 µM; active compounds read high
The source made the active and inactive calls.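 The calls were made as follows: active = viability loss from added drug above about 55%, and viability with drug at most 40%, in both replicates (limit read from the data, passing the limit was not always enough); inconclusive = both conditions met in only one replicate; inactive = neither replicate meets both conditions.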
The entries below are paired with their reported differential viability (reversal).

Examples from the recorded data:
Asked: Record request: differential viability (reversal) value, item CCOc1ccccc1N(C(=O)c1ccco1)C(C(=O)NC1CCCC1)c1cccnc1 (stereo unspecified)
Given back: -6.1% (inactive)

Asked: Next entry: Cc1ccc(CNC(=O)c2coc(=O)c3ccccc23)o1
Given back: -24.6% (inactive)

Asked: Cool, now Cc1nnc(SCC(=O)NCc2ccc3c(c2)OCO3)s1
Given back: -12.3% (inactive)

More entries:
Asked: I would be grateful if you could share the reported differential viability (reversal) for COc1ccc(OC)c(S(=O)(=O)Nc2ccc(O)c3ccccc23)c1 .
Given back: -0.325% (inactive)

Asked: Try this compound next: CSc1nnc(-c2cnccn2)n1Cc1ccccc1
Given back: 6.43% (inactive)

====

The entries below are paired with their reported differential viability (reversal).
Test: reversal of MRP1-mediated doxorubicin resistance, pilot screen, H69AR cells, doxorubicin co-treatment (AID 601)
Conditions: H69AR cells + 2 uM doxorubicin, CellTiter-Glo, 72 h; at 10 µM; active compounds read high
The source made the active and inactive calls.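 How the source made its calls: active means viability loss from added drug above about 55%, and viability with drug at most 40%, in both replicates (limit read from the data, passing the limit was not always enough); inconclusive means both conditions met in only one replicate; inactive means neither replicate meets both conditions.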

Below: 8 compounds and their reported differential viability (reversal).
Asked: Which differential viability (reversal) reading was recorded for the compound Cn1cccc1Cc1nnc(SCC(N)=O)n1-c1ccc(F)cc1 ?
Given back: 12.2% (inactive)

Asked: Let us now turn to COC(=O)c1ccnc(/C=N/O)c1
Given back: 7.13% (inactive)

Asked: Please give the result for COc1ccc(-c2c(=O)n(OCc3ccccn3)c3ccccc3[n+]2[O-])cc1OC too.
Given back: -2.4% (inactive)

Asked: # repeat for O=C(CCn1c(=O)sc2ccccc21)NCc1ccc2c(c1)OCO2
Given back: 8.43% (inactive)

Asked: Thanks! And CC12CCC(C(=O)O)(c3nc(C#N)c(C#N)nc31)C2(C)C (stereo unspecified) ?
Given back: 6.8% (inactive)

Asked: Now the same for CN(C)c1nc(N(C)C)nc(N(C)C)n1
Given back: -2.79% (inactive)

Asked: Try this compound too: CCN(CC)S(=O)(=O)c1ccc(NC(=O)c2cccc3c2C(=O)N(CCOC)C3)cc1
Given back: 9.21% (inactive)

Asked: Entry to check: C[C@H](CCC(=O)O)[C@H]1CC[C@H]2[C@@H]3C(=O)C[C@@H]4CC(=O)CC[C@]4(C)[C@H]3CC(=O)[C@]12C
Given back: -6.55% (inactive)

Next:
Asked: Any idea what differential viability (reversal) was measured for O=C(Cc1cccs1)N(c1ccccc1)C1C=CS(=O)(=O)C1 (stereo unspecified) ?
Given back: 28.9% (inactive)

Asked: Then what about the compound CC1(C)CC(=O)C(C=Nc2ccncc2)=C(O)C1 ?
Given back: 7.13% (inactive)

Asked: Input CCn1nnnc1SCC(=O)N1c2ccccc2CCc2ccccc21
Given back: -5.9% (inactive)

Asked: Another: CC1C/C=C/C=C/C=C/C=C/C(O[C@@H]2O[C@H](C)[C@@H](O)[C@H](N)[C@@H]2O)CC2OC(O)(CC(O)CC3OC3/C=C/C(=O)O1)CC(O)C2C(=O)O (stereo partly specified)
Given back: 8.26% (inactive)

Asked: What would you report for CC(C)(C)NCC(O)COc1cccc2c1C[C@H](O)[C@H](O)C2 (stereo partly specified) ?
Given back: 4.26% (inactive)

Asked: Please give the result for CCOC(=O)C1=C(C)Nc2nc(SCC(=O)OC)nn2C1c1cc(F)cc(F)c1 (stereo unspecified) too.
Given back: 7.16% (inactive)

Asked: Query COCCNC(=O)C(c1ccc(C)o1)N(Cc1cccs1)C(=O)c1snc(C(N)=O)c1N (stereo unspecified) next
Given back: 0.375% (inactive)

Asked: Please answer likewise for O=C(Nc1cccc(-c2nnc(-c3ccccc3)o2)c1)C1CCCCC1
Given back: 0.7% (inactive)

Asked: Please do the same for c1ccc(-c2csc(N3CCCCCC3)n2)cc1 as well.
Given back: 14.9% (inactive)

Asked: Repeat for the following compound: CCSc1nc(O)c(C2OC(=O)c3c2ccc(OC)c3OC)c(=O)n1-c1ccccc1 (stereo unspecified)
Given back: 11.4% (inactive)

Asked: Same for Cc1cccc(N2C(=O)CC(N(C(=O)c3ccco3)c3cccc(C)c3)C2=O)c1 (stereo unspecified)
Given back: -3.33% (inactive)

Asked: Okay, and Cc1ccc(S(=O)(=O)N(C)c2ccc(OCC(=O)OCc3c(C)noc3C)cc2)cc1 ?
Given back: 6.56% (inactive)

Asked: Similarly, COc1ccc(OC)c(N2Cc3cc(C)c(C)cc3C2)c1 ?
Given back: 6.88% (inactive)

====

Test: growth inhibitors of H69AR lung tumor, primary screen, human, duplicate replicates (AID 580);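 also: 100% = mean luminescence of untreated wells and 0% = no signal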
Conditions: H69AR lung tumor cells viability, ATP luminescence, 72 h; at 10 µM; active compounds read low
Criterion: viability strictly less than 90%. Met: Satisfied. Not met: Not satisfied.

Illustrative cases are given below, each with its answer.
Asked: Identify whether the compound COc1ccc(C)cc1NC(=O)CN1CCN(S(=O)(=O)c2ccc(Cl)cc2)CC1 records viability below 90%.
Given back: Satisfied

Asked: // query: CC(C)(C)c1ccc(O)c(N)c1
Given back: Not satisfied

Asked: Another compound to look at: O=C(Cn1c(NCCO)nc2ccccc21)c1ccccc1
Given back: Not satisfied

Asked: And then Cc1ccc(OCc2nnc(SCC(=O)N3CCOCC3)n2C)cc1 , what is it?
Given back: Not satisfied

Further cases:
Asked: Is the reported viability for Cc1cccc(-n2ncc3c(NCc4cccs4)ncnc32)c1 strictly below 90%?
Given back: Satisfied

Asked: Lookup CCOC(=O)C1=C(N)c2ccccc2CC1C(C)C (configuration not stated)
Given back: Satisfied

Asked: Would you mind doing Cc1cc(C)n(CC(=O)NC2CCCCC2)n1 as well?
Given back: Not satisfied

====

Experiment: growth suppression of yeast trafficking mutant, preliminary HTS, modulators of trafficking downstream of Golgi apparatus project, 1536-format plate, OD 615 nm (AID 637)
Settings: yeast transport mutant growth, absorbance 615 nm, 18 h
The source made the active and inactive calls. Rule as the data show it: active = inhibition above about 30%; inactive = the rest.
Please reply with one of these outcomes: T for active, F for inactive

Field: example entries. Status: answers known.
Asked: What classification did O=C(NCc1cccnc1)c1cccc(C(F)(F)F)c1 end up with in this test?
Given back: F

Asked: Field entry: Cn1c(=O)cc(OCCCC(=O)Nc2ccc3c(c2)OCCO3)c2ccccc21
Given back: F

Further cases:
Asked: Outcome? O=C(NC1CCCC1)c1cc(-c2cccs2)on1
Given back: F

Asked: Now consider Cc1ccc(S(=O)(=O)C2(C(=O)N3CCCCCC3)CC2)cc1 and answer again.
Given back: F

Asked: Would you kindly repeat that for CN(CC(=O)O)S(=O)(=O)c1cc(Cl)ccc1Cl ?
Given back: F

Asked: Try the compound C=CCNC(=O)c1ccc(Cl)cc1Cl
Given back: F

Asked: Cool, now CCOC(=O)C1=C[C@]2(CC)CCCN3CCc4c(n1c1ccccc41)[C@@H]32
Given back: F

====

Assay: HUVEC growth inhibition – cell-based, human, primary screen (AID 575);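 also: 100% = median of untreated cell wells with 0.1% DMSO on each plate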
Conditions: HUVEC proliferation, CellTiter-Glo luminescence, 72 h; at 10 µM; active compounds read low
List of viability values.
Reply numerically in %, unit not repeated.

Asked: Param item = CCOC(=O)Cc1nnc(Nc2cccc(O)c2)c2ccccc12 ; retrieve measured viability.
Given back: 95.4

Asked: Can you check Cc1c(NC(=O)C(C)OC(=O)c2cc3c4ccccc4n(C)c3s2)c(=O)n(-c2ccccc2)n1C (stereo not given) next?
Given back: 80.8

Asked: Can you handle CCOC(=O)c1c(NC(=O)Cn2c(C)nc3ccccc32)sc2c1CCC2 next?
Given back: 63

Asked: Query O=c1c2ccccc2[nH]c(=S)n1CCN1CCC(=C(c2ccc(F)cc2)c2ccc(F)cc2)CC1 next
Given back: 18.2

Asked: Moving on to COC(=O)CCC(NC(=O)c1cc(-c2ccc3c(c2)OCCO3)oc1C)C(=O)OC (stereo not given)
Given back: 74.8

Asked: Quick one: O=C(Cn1c(-c2cncs2)nc2ccccc21)NC1CCCC1
Given back: 103

Further cases:
Asked: Recorded viability of N#CC1=C(N)C(C#N)(C#N)[C@H](c2ccsc2)[C@H]2COCC=C12 , please.
Given back: 96

Asked: Also check Cc1sc2nc(SCC(=O)Nc3c(C)n(C)n(-c4ccccc4)c3=O)n(C)c(=O)c2c1C
Given back: 95.4

Asked: What do you get for O=c1[nH]c(NCc2ccccc2)nc2c1CCCC2 ?
Given back: 115

Asked: What about CCN(c1ccc2c(c1)OCO2)S(=O)(=O)c1cc(Br)cc2c1N(C(=O)C1CC1)CC2 ?
Given back: 89.6

====

Test: reversal of MRP1-mediated doxorubicin resistance, pilot screen, H69AR cells, doxorubicin co-treatment (AID 601)
Details: H69AR cells + 2 uM doxorubicin, CellTiter-Glo, 72 h; at 10 µM; active compounds read high
Endpoint: differential viability (reversal) (%)
State just the number; it will be interpreted in %.

Guide cases for differential viability (reversal), answers given:
Asked: // differential viability (reversal) lookup, key: O=C1CCC(C(=O)N(Cc2ccco2)C2(C(=O)NC3CCCC3)CCCCC2)N1 (stereo not drawn)
Given back: -8.42

Asked: Item: O=C(CC(SCCO)c1ccc2c(c1)OCO2)c1ccco1 (stereo not drawn)
Given back: -17.8

Asked: Same question for O=C(CCCN1CCC(O)(c2ccc(Cl)cc2)CC1)c1ccc(F)cc1 please.
Given back: 3.11

Asked: Same lookup for CCCCn1c(CN2CCN(CCO)CC2)nc2ccccc21 , please.
Given back: 5.24

Asked: Next record, please: CN(CC(=O)N1CCN(C2CCCCC2)CC1)S(=O)(=O)c1cccc2nsnc12
Given back: 5.6

Asked: Request: Cc1cccc(-n2nnnc2SCc2csc(-c3ccccc3)n2)c1
Given back: 5.89

Asked: Please give the result for CCn1nnc(NC(=O)c2ccccc2Br)n1 too.
Given back: 10.5

Asked: Would you mind doing O=C(CSc1nc2ccccc2o1)N1CCN(c2ccc(Cl)cc2)CC1 as well?
Given back: 1.47

Asked: // next record O=C(O)c1ccc2noc(-c3ccccc3)c2c1
Given back: 5.36

Asked: How about this molecule: OC1(c2cccc(C(F)(F)F)c2)CCNCC1
Given back: 4.62

Further cases:
Asked: Request the reported differential viability (reversal) associated with CCc1ccc(NS(=O)(=O)c2ccc3[nH]cc(C(=O)N4CCCCC4)c(=O)c3c2)cc1
Given back: 5.6

Asked: Next up: COc1ccc(CN2C(=O)[C@@H]3C(c4ccc(F)cc4)=NO[C@@H]3C2=O)cc1
Given back: 3.49

Asked: Also, Cc1nc(C)c2c(c1C(F)(F)F)-c1ccccc1C2(F)F please.
Given back: 16.4

Asked: Can you handle O=C1CCCc2nc(N3CCCCC3)sc21 next?
Given back: -6.74

Asked: Can you check CCOC(=O)C1CCCN(C(=O)Cc2ccc(OC)c(OC)c2)C1 (stereo not drawn) next?
Given back: 2.69

Asked: Record: COc1ccc(C2/C(=C(/O)c3ccc(OC(C)C)cc3)C(=O)C(=O)N2CCCN2CCOCC2)cc1 (stereo not drawn)
Given back: -12.4
